Molecular target: ICE (Homo sapiens, UniProt P29466)
Sequence (P29466 120-297 limits assumed): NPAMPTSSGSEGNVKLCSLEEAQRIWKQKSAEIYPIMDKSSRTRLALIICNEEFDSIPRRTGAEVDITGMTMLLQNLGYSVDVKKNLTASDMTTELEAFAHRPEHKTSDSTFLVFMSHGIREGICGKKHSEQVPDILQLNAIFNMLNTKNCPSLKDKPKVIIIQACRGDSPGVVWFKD
Sequence (P29466 317-404 limits assumed): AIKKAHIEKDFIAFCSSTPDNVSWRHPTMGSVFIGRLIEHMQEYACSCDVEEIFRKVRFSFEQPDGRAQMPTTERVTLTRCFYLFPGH
ENDPOINT_NAME: Ki (nM)

> print(dat)
                                   compound  result.units  reported.value
1  O=C[C@H](CC(=O)O)NC(=O)CN1C(=O)[C@@H](NC(=O)c2nccc3ccccc23)CSc2ccccc21 [Compound 11b]            nM              14

a: O=C[C@H](CC(=O)O)NC(=O)CN1C(=O)[C@@H](NC(=O)c2c[nH]c3ccccc23)COc2ccccc21
b: O=C[C@H](CC(=O)O)NC(=O)CN1C(=O)[C@@H](NC(=O)c2nccc3ccccc23)CS(=O)(=O)c2ccccc21 [Compound 19a]
c: Cc1cc(C(=O)N[C@H]2CSc3ccccc3N(CC(=O)N[C@H](C=O)CC(=O)O)C2=O)cc(C)c1O [Compound 11a]
d: Cc1cc(C(=O)N[C@H]2CC(=O)c3ccccc3N(CC(=O)N[C@H](C=O)CC(=O)O)C2=O)cc(C)c1O [Compound 17a]
# input Task field, ranking: reported Ki, descending order. Output spec: labels arranged per the requested ranking.
# output b, a, d, c
(b: 140 nM, a: 20 nM, d: 12 nM, c: 7.5 nM)
